A collection of sequences and their measured protein stability index
tested on: Saccharomyces cerevisiae; assay: protein stability index of tFT-peptide fusion (C-terminal peptide) (PSI (0-1 scale)); higher = more stable (slower turnover); details: genetic background: wild type; temperature: 30 C;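 further: PSI is a weighted mean of sequencing reads over stability bins, variants kept only with over 10 reads, mCherry proximal and sfGFP distal, peptide attached via GGGS linker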
measured endpoint: protein stability index

>>> result("PPIPTPSPIPLH")
0.712
>>> result("LRPPPPSAGAPP")
0.708
>>> result("CVMWFLLSAYYL")
0.386
>>> result("PVSFPFPISSLS")
0.701
>>> result("PPPLPRRPASPL")
0.652
>>> result("GVIFPQFDPCAL")
0.788
>>> result("APPPPPPPPRPL")
0.642
>>> result("PFPRPVSPSPPP")
0.743
>>> result("DRTNIIGVIDDL")
0.753
>>> result("RNKKIKKKKGRN")
0.701
>>> result("RVRRAGSGWCGK")
0.729
>>> result("GNRNGEFINTQI")
0.665
>>> result("HRRASYVLSPLS")
0.741
>>> result("WRVFPVVSCSSS")
0.631
>>> result("SNHIAPAFKIKQ")
0.678
>>> result("WVGSGRVWVKLG")
0.708
>>> result("HIPRLPRPTRAP")
0.682
>>> result("PLSLPAPPPRPR")
0.654
>>> result("MGQVMTKQQRKI")
0.668
>>> result("WPAPLPPTRPLP")
0.722
>>> result("GDCIDCFKLVGI")
0.711
>>> result("NDHEQGPTQARG")
0.669
>>> result("RPPLIPAALLFL")
0.589
>>> result("FGRWVVVYRGLD")
0.625
>>> result("IKTKKKKKKKRD")
0.686
>>> result("PGNYVLSDPPLM")
0.715
>>> result("FPATLPPSYSLI")
0.643
>>> result("RTRVRKTRIRTC")
0.392
>>> result("SCLMSFAFFASL")
0.619
>>> result("ILCLPFSVSSPS")
0.616
>>> result("SPSPPLASPPPL")
0.686
>>> result("YNKKKKRYKKKF")
0.72
>>> result("FLCFFGGCFFLV")
0.468
>>> result("RAASLVSCSLIL")
0.672
>>> result("IPPPLPPRAPLP")
0.672
>>> result("RINGPLHRLSVA")
0.657
>>> result("QFEEFKRGFEVA")
0.722
>>> result("PSETPSPLTLCS")
0.722
>>> result("NHRQPNSTKNRT")
0.547
>>> result("ARTRRPTPGRPI")
0.719
>>> result("YWSFRKGGLALY")
0.651
>>> result("RGSWRGLADSGV")
0.676
>>> result("SPPATPWPPDLR")
0.627
>>> result("KKKRKDKTKIDK")
0.658
>>> result("SPPLFCSPPISP")
0.719
>>> result("FPDTRSLPLPPG")
0.687
>>> result("KKKKNKKKKKPK")
0.615
>>> result("MSRRHDQESIHV")
0.673
>>> result("RNLRCDIVNVYP")
0.759
>>> result("PCPVLPLPPFYL")
0.728
>>> result("LVRFYGPLPPFP")
0.726
>>> result("VVALLGPSGGWW")
0.742
>>> result("SPDCSLSPSVSG")
0.684
>>> result("PPRPPPLSPAPP")
0.7
>>> result("RIIHIHKLFLRR")
0.677
>>> result("LVFPPVPSLVLC")
0.352
>>> result("PFPSPAAPPPSL")
0.674
>>> result("HNFYKLNLDHLK")
0.649
>>> result("ILCFSLESPRYH")
0.699
>>> result("KEHTNKDEMPKE")
0.705
>>> result("PDQPQPRPATNQ")
0.681
>>> result("PPPAPPPAIPHP")
0.687
>>> result("FFFSLFFVLFFA")
0.22
>>> result("SAFPSRVIGGGV")
0.661
>>> result("SIRTKVVRNVVS")
0.625
>>> result("KKKIRKKKVRRK")
0.649
>>> result("KQQCKTGRRRLV")
0.716
>>> result("PSPLPPPVSRPP")
0.691
